tested on: Ba/F3 P210-BCR-ABL1 RUNX1-/mut (mouse); assay: drug sensitivity score (DSS) (DSS score); higher = more sensitive (stronger growth inhibition); extreme values may be limits of the assay
Catalogue of drug sensitivity score readings, one per entry.

| compound | drug sensitivity score |
| --- | --- |
| CC1(C)OCCn2c1nc1c(N3CCOCC3)nc(-c3cnc(N)nc3)nc12 [GDC-0084] | 10.3 |
| Cc1sc2c(c1C)C(c1ccc(Cl)cc1)=N[C@@H](CC(=O)Nc1ccc(OCCOCCOCCOCCNc3cccc4c3C(=O)N(C3CCC(=O)NC3=O)C4=O)cc1)c1nnc(C)n1-2 (some centres not stated) [ARV-825] | 18.7 |
| O=C(CCCCCCNC(=O)c1cnc(N(c2ccccc2)c2ccccc2)nc1)NO [Rocilinostat] | 9.05 |
| N[C@@H]1CCCN(c2c(/C=C3\SC(=O)NC3=O)cccc2-c2ccccc2)C1 [AZD1208] | 7.05 |
| COc1cccc(OCCCN)c1-c1cc(Nc2cnc(C#N)cn2)n[nH]1 [Prexasertib] | 31.4 |
| O=C(CCCCCCC(=O)Nc1ccccc1)NO [Vorinostat] | 12.6 |
| CC[C@@]1(O)C(=O)OCc2c1cc1n(c2=O)Cc2cc3c(CN(C)C)c(O)ccc3nc2-1 [Topotecan] | 17.2 |
| CNS(=O)(=O)Nc1nccc(Cc2c(C)c3ccc(Oc4ncccn4)cc3oc2=O)c1F | 0.3 |
| Nc1nc2[nH]cnc2c(=S)[nH]1 [Thioguanine] | 13.1 |
| C[C@@H]1COC(Nc2ccc3ncnc(Nc4ccc(OCc5nccs5)c(Cl)c4)c3c2)=N1 [Varlitinib] | 1.15 |
| Nc1nc(Nc2ccc3c(c2)CC[C@@H](N2CCCC2)CC3)nn1-c1cc2c(nn1)-c1ccccc1CCC2 [BGB324] | 6.35 |
| O=S(=O)(c1cccc2c(O)nccc12)N1CCCNCC1 [Hydroxyfasudil] | 0.4 |
| COc1cc(Nc2ncc(F)c(Nc3ccc4c(n3)N(COP(=O)(O)O)C(=O)C(C)(C)O4)n2)cc(OC)c1OC [Fostamatinib] | 0.45 |
| CC[C@H](C)C(=O)O[C@H]1C[C@H](O)C=C2C=C[C@H](C)[C@H](CC[C@@H](O)C[C@@H](O)CC(=O)O)[C@H]21 [Pravastatin] | 0 |
| COc1cc(OC)cc(N(CCNC(C)C)c2ccc3ncc(-c4cnn(C)c4)nc3c2)c1 [Erdafitinib] | 0 |
| CC(C)n1cnc2c(NCCc3ccc(O)cc3)nc(-c3csc4ccccc34)nc21 [StemRegenin 1] | 3.05 |
| CCN(CC)CCCC(C)Nc1c2ccc(Cl)cc2nc2ccc(OC)cc12 (configuration not stated) [Mepacrine] | 19.7 |

* * *

test system: Ba/F3 P210-BCR-ABL1 RUNX1wt/wt control (mouse); assay: drug sensitivity score (DSS) (DSS score); higher = more sensitive (stronger growth inhibition); extreme values may be limits of the assay
Param threshold (4) applies to drug sensitivity score; output Condition met when value >= threshold, Condition not met when value < threshold.

| compound | class |
| --- | --- |
| Cc1ccc(NC(=O)c2ccc(CN3CC[C@H](N(C)C)C3)c(C(F)(F)F)c2)cc1Nc1nccc(-c2cncnc2)n1 | Condition met |
| Nc1cccc2c1C(=O)N(C1CCC(=O)NC1=O)C2=O (stereo unspecified) [Pomalidomide] | Condition not met |
| Cn1cnc2c(F)c(Nc3ccc(Br)cc3Cl)c(C(=O)NOCCO)cc21 | Condition not met |
| C=CC(=O)Nc1cccc(Nc2nc(Nc3ccc(N4CCN(C(C)=O)CC4)cc3OC)ncc2C(F)(F)F)c1 | Condition met |
| O=C(CCNC(=O)c1ccc(OC(F)(F)F)cc1)N[C@@H]1CCCc2ccccc21 | Condition met |
| CC1(C)CC[C@]2(NC(=O)C(C)(F)F)CC[C@]3(C)[C@H](C(=O)C=C4[C@@]5(C)C=C(C#N)C(=O)C(C)(C)[C@@H]5CC[C@]43C)[C@@H]2C1 | Condition met |
| CN1CCN(c2ccc(C(=O)Nc3n[nH]c4ccc(Cc5cc(F)cc(F)c5)cc34)c(NC3CCOCC3)c2)CC1 | Condition not met |
| COc1cccc(OCCCN)c1-c1cc(Nc2cnc(C#N)cn2)n[nH]1 | Condition met |
| CC#CC(=O)N1CC[C@@H](n2c(=O)n(-c3ccc(Oc4ccccc4)cc3)c3c(N)ncnc32)C1 | Condition not met |
| Nc1nc(Nc2ccc3c(c2)CC[C@@H](N2CCCC2)CC3)nn1-c1cc2c(nn1)-c1ccccc1CCC2 | Condition met |
| CN(C)C(=O)c1cc2cnc(Nc3ccc(N4CCNCC4)cn3)nc2n1C1CCCC1 | Condition not met |
| O=C(O)c1ccc(O)c2ncccc12 | Condition not met |
| COc1cc2ncnc(Oc3cccc(NC(=O)Nc4cc(C(C)(C)C(F)(F)F)on4)c3)c2cc1OC | Condition met |
| C[C@H](Nc1ncnc2nc[nH]c12)c1cc2cccc(Cl)c2c(=O)n1-c1ccccc1 | Condition not met |
| Cc1cnc(-c2ccccc2C(C)C)nc1NCc1ccc(-n2ccnn2)cc1 | Condition not met |
| Nc1nc2[nH]cc(CCc3ccc(C(=O)N[C@@H](CCC(=O)O)C(=O)O)cc3)c2c(=O)[nH]1 | Condition met |

* * *

test system: Ba/F3 P210-BCR-ABL1 RUNX1wt/wt control (mouse); test: drug sensitivity score (DSS) (DSS score); higher = more sensitive (stronger growth inhibition); extreme values may be limits of the assay
recorded_endpoint: drug sensitivity score

| compound | result_value |
| --- | --- |
| CN[C@@H](C)C(=O)N[C@H]1CN(C(=O)CC(C)C)CC[C@H]2CC[C@@H](C(=O)NC(c3ccccc3)c3ccccc3)N2C1=O [AT-406] | 13 |
| Cc1cccc(-c2[nH]c(CNc3ccccc3F)nc2-c2ccc3ncnn3c2)n1 [TEW-7197] | 0 |
| Cc1ncc(Cl)cc1NCc1ccc(C(=O)N[C@@H](CC2CCCC2)C(=O)NC2CC2)s1 | 0 |
| CNc1nc(-c2ccc3c(N)n[nH]c3c2)cc(N2C[C@@H](C(=O)NC3CCCCC3)CC[C@H]2C)n1 | 0 |
| Nc1nc(N)c2nc(-c3cccc(O)c3)c(-c3cccc(O)c3)nc2n1 [TG100-115] | 0 |
| O=c1[nH]c(=O)n([C@H]2C[C@H](O)[C@@H](CO)O2)cc1F [Floxuridine] | 26.9 |
| O=C1CCC(N2C(=O)c3ccccc3C2=O)C(=O)N1 (stereo not drawn) [Thalidomide] | 0.05 |
| CCc1c(C(=O)C(N)=O)c2c(OCC(=O)O)cccc2n1Cc1ccccc1 [Varespladib] | 0 |

* * *

system: Ba/F3 P210-BCR-ABL1 RUNX1-/mut (mouse); assay: drug sensitivity score (DSS) (DSS score); higher = more sensitive (stronger growth inhibition); extreme values may be limits of the assay
Entries annotated with measured drug sensitivity score
recorded_endpoint: drug sensitivity score

| compound | result_value |
| --- | --- |
| NS(=O)(=O)NCCNc1nonc1/C(=N/O)Nc1ccc(F)c(Br)c1 | 0.7 |
| CN1CC[C@H](c2c(O)cc(O)c3c(=O)cc(-c4ccccc4Cl)oc23)[C@H](O)C1 | 17.2 |
| O=C(c1ccc(OCCN2CCCCC2)cc1)c1c(-c2ccc(O)cc2)sc2cc(O)ccc12 | 5.05 |
| O=C(Nc1cccc(NC(=O)c2cccc(O)c2O)c1)c1cccc(O)c1O | 17.1 |
| Nc1cccc2c1CN(C1CCC(=O)NC1=O)C2=O (configuration not stated) [Lenalidomide] | 2.45 |
| O=C(O)CC1CC(c2ccccc2)=NO1 (configuration not stated) | 0.05 |
| Oc1ncnc2[nH]ncc12 | 0.35 |
| COc1ccc(CCc2nc3cc(-c4c(C)noc4C)ccc3n2C[C@H](C)N2CCOCC2)cc1Cl | 12.7 |
| Nc1cccc2c1C(=O)N(C1CCC(=O)NC1=O)C2=O (configuration not stated) [Pomalidomide] | 0 |
| COc1c(C)cnc(Cn2cnc3c(Cl)nc(N)nc32)c1C | 22.8 |
| N#Cc1ccc(COC[C@H]2O[C@@H](n3c(NCc4ccc(Cl)c(Cl)c4)nc4c(N)ncnc43)[C@H](O)[C@@H]2O)cc1 | 11.2 |
| CC[C@H](CC#N)OC(=O)N[C@@H](C)c1cccc(NC(=O)Nc2ccc(-c3cnco3)c(OC)c2)c1 | 24.9 |
| CC(C)NC[C@@H](C(=O)N1CCN(c2ncnc3c2[C@H](C)C[C@H]3O)CC1)c1ccc(Cl)cc1 | 3.4 |
| CNC(=O)c1cccc2cc(Oc3ccnc4cc(OCC5(N)CC5)c(OC)cc34)ccc12 | 2.95 |
| COc1cc([C@@H]2c3cc4c(cc3[C@@H](O[C@@H]3O[C@@H]5CO[C@@H](C)O[C@H]5[C@H](O)[C@H]3O)[C@H]3COC(=O)[C@H]23)OCO4)cc(OC)c1O [Etoposide] | 21.1 |
| CCn1c(C(=O)N(C2CC2)C2CC2)cc2c3c(ncn3C)c(Nc3cc(C)n(C)n3)nc21 | 0 |
| O=C(c1cc(Cc2n[nH]c(=O)c3ccccc23)ccc1F)N1CCN(C(=O)C2CC2)CC1 | 9.9 |

// data source = the supplement of paper PMC8024199
